Tested on: E. coli h38 humanized mutant ribosome RFP fluorescence, mixed culture, 24 h
protocol-notes: growth inhibition of wild-type GFP E. coli, dose response, h38 mutant RFP, cherry-pick (AID 977622)
condition-parameters: h38 mutant RFP at 50 uM; at 50 µM
Among all 1,900 compounds or so, fewer than 10 were called active. Inconclusive results (about 39%) are left out. Only a sample is shown.
For each record, write down the corresponding activity change.
Record the value in %, omitting the unit from your answer.

Record request: activity change value, item O=C(c1ccc(-n2cccn2)cc1)N1CCc2ccccc2C1
-27.7

Follow-up entry: O=C(c1cccc2ccccc12)C1CCCN(C(=O)CCc2cnccn2)C1 (configuration not stated)
-5.75

Follow-up entry: Cc1ccc(-n2c(SCC(N)=O)nnc2-c2cnccn2)cc1
-24.8

Follow-up entry: CCOc1ncccc1C(=O)OCC(=O)NCCCc1ccccc1
13.1

Follow-up entry: Cc1ccc(-n2cc(CNCCN3CCOC3=O)c(-c3ccc(F)cc3)n2)cc1
31.2

Follow-up entry: CS(=O)(=O)Nc1ccccc1C(=O)NCCSc1ccccc1
-11.5

Follow-up entry: CCOC(=O)c1cnc2ccccc2c1NCc1ccco1
-3.48

Follow-up entry: Cc1cccc(-c2ccc([C@@H]3[C@@H](CO)N4CCCCN(S(=O)(=O)c5ccccc5C)C[C@@H]34)cc2)c1
21

Follow-up entry: COC(=O)c1ccc(CCc2cc(O)c(Br)cc2O)cc1
27.3

Follow-up entry: CN(C)S(=O)(=O)N1CCN(c2ccccc2Cl)CC1
-15.7

Follow-up entry: Cc1cc(C)nc(SCCC(=O)Nc2ccccc2Cl)n1
4.04

Follow-up entry: O=C(Nc1c(S(=O)(=O)c2ccc(Cl)cc2)csc1Br)c1ccccc1Cl
8.46

Follow-up entry: COc1cccc(C(=O)c2c[nH]c(C(=O)NCc3cccnc3)c2)c1
13.5

Follow-up entry: CC(C)n1nnnc1C1c2ccccc2C(=O)N1CCOc1ccccc1 (configuration not stated)
-9.39

Follow-up entry: CC(C)CC#Cc1ccc([C@@H]2[C@@H](CO)N3C(=O)CN(C(=O)Cc4ccccc4)C[C@@H]23)cc1
19.9

Follow-up entry: Cc1ccc(Cc2c(-c3ccc(C#N)cc3)nc3ccc(Br)cn23)cc1
-11

Follow-up entry: CC(CCc1ccccc1)NC(=O)CCC1CCCC1 (configuration not stated)
4.55

Follow-up entry: COc1cc2c(c(OC)c1OC)C(c1ccc3c(c1)OCO3)CC(=O)O2 (configuration not stated)
37.2

Follow-up entry: COc1ccc(C#Cc2ccc([C@H]3[C@@H](CO)N4CCCCN(C(=O)Nc5cccc(F)c5)C[C@H]34)cc2)cc1
73.7

Follow-up entry: C=CCn1c(C)cc(C(=O)CSc2nnc(C3CC3)n2C2CC2)c1C
-37.4

Follow-up entry: CCC(C(=O)Nc1ccsc1C(=O)OC)c1ccccc1 (configuration not stated)
40.7

Follow-up entry: COC(=O)CN1C(=S)N(c2ccc(F)cc2)C(=O)C1CC(=O)Nc1ccc(F)cc1 (configuration not stated)
-5.83
